assay: Leishmania major promastigote growth inhibition, primary screen (AID 1063); conditions: Leishmania major promastigotes, resazurin fluorescence viability; at 10 µM; active compounds read high;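 note: promastigotes grown with compound for 44 hours at 28 °C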
The campaign covered roughly 200,000 compounds. About 18,000 (9%) were called active. Only a selection was taken, and actives are over-represented in it overall.
measured.quantity: inhibition (%)
Response body: numeric value in %, unit text excluded.

| compound | readout.number |
| --- | --- |
| CCn1c(=O)cc(OCC(=O)NCCCN2CCN(c3cccc(Cl)c3)CC2)c2ccccc21 | 23.9 |
| COc1ccc2c(c1)C(SCC(=O)NCc1ccccc1)CC(C)(C)O2 (stereo not given) | -6.83 |
| CSc1nc2c(c(=O)[nH]1)C(c1cccc(Cl)c1Cl)CC(=O)N2 (stereo not given) | -5.68 |

Query: Reported inhibition for N#Cc1c(N)nc2c3c(sc(=N)c2c1N)NC(=O)CC3c1ccccc1Cl (stereo not given) : what is it?
Response: 75.7

Query: Reported inhibition for COc1cccc(NC(=O)CN(C)CC(=O)Nc2ccc3c(c2)CCC3)c1 : what is it?
Response: 2.96

Query: Reported inhibition for CC(C)C(=O)OCC(=O)Nc1ccc2c(c1)CCC2 : what is it?
Response: -3.35
